Hey, just so you know, these numbers are from PubChem BioAssay AID2060900.

System: 521955-158-R2-J5-PDC complex spheroids, viability;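 also: spheroids also contain HUVEC endothelial cells and mesenchymal stem cells as stroma; compound exposure lasted seven days before the viability read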
assay-comment: Anticancer human tumor 521955-158-R2-J5-PDC patient-derived pancreatic carcinoma cell line growth inhibition [RAS]
condition-parameters: second compound 0.003 µM; first compound 0.000949 µM; stronger effect = lower value
endpoint-label: viability, T/C

Any idea what viability, T/C was measured for CCc1c2c(nc3ccc(O)cc13)-c1cc3c(c(=O)n1C2)COC(=O)[C@]3(O)CC + CCn1c(-c2cccnc2C(C)OC)c2c3cc(ccc31)N1CCOC(CC(NC(=O)C(C(C)C)N(C)C(=O)C3(F)CCN(C(=O)C#CC(C)(C)N(C)C)CC3)C(=O)N3CCCC(N3)C(=O)OCC(C)(C)C2)C1 ? 92.6%

Same question, CC1(C)CCC(Nc2ncc(C(F)(F)F)c(-c3c[nH]c4c(P(C)(C)=O)c(C#N)ccc34)n2)CN1 (centres undefined) + CCn1c(-c2cccnc2C(C)OC)c2c3cc(ccc31)N1CCOC(CC(NC(=O)C(C(C)C)N(C)C(=O)C3(F)CCN(C(=O)C#CC(C)(C)N(C)C)CC3)C(=O)N3CCCC(N3)C(=O)OCC(C)(C)C2)C1 this time 106%

Same question, CCc1c2c(nc3ccc(O)cc13)-c1cc3c(c(=O)n1C2)COC(=O)[C@]3(O)CC + CCn1c(-c2cc(N3CCN(C)CC3)cnc2C(C)OC)c2c3cc(ccc31)-c1csc(n1)CC(NC(=O)C1CC1C)C(=O)N1CCCC(N1)C(=O)OCC(C)(C)C2 this time 30.4%

Same question, CC1(C)CCC(Nc2ncc(C(F)(F)F)c(-c3c[nH]c4c(P(C)(C)=O)c(C#N)ccc34)n2)CN1 (centres undefined) + CCn1c(-c2cc(N3CCN(C)CC3)cnc2C(C)OC)c2c3cc(ccc31)-c1csc(n1)CC(NC(=O)C1CC1C)C(=O)N1CCCC(N1)C(=O)OCC(C)(C)C2 this time 34.6%
